Tested System: Influenza virus A/Panama/2007/1999 (H3N2) (Influenza A virus A/Panama/2007/1999 (H3N2))
Test: cell-based or functional assay
Task for the reader: assign each of the following binders its reported Neutralizing activity (%) at 100 µg/ml.
Answers are plain numbers, in %.

These solved cases illustrate the format of a correct answer.
1. Group 42 representative clone F083-249, Fab-PP-type antibody (Fab, V domains shown) VH: QVQLVQSGSEVKKPGSSVKVSCKASGVTFSSYAISWVRQAPGQGLEWMGGISPMFGTTRYAQKFQGRVTITADESTRTGFMELSSLRSGDTAVYYCARSPTYYPGALDMWGQGTTVTVSS VL: DVVMTQSPSLLSASVGDRVTITCRASQAIANFVSWFQQKPGEAPKSLIHAASTLQGGVPPRFSGSGYGAVFTLTITNLQPEDFATYFCQQYNSLPFTFGPGTDVEVR | 15.8
2. Group 44 representative clone F081-008, Fab-PP-type antibody (Fab, V domains shown) VH: QVQLVQSGAEVKKPGSSVKVSCKASGGTFSSFSTYTISWVRQAPGQGLEWMGRSIPLLGITNYAQKFQGRVTITADISTSTAYMELSSLRSEDTAVYYCARYQSSDYYNSEYFQHWGQGTLVTVSS VL: EIVLTQSPGTLSLSLGERVTLSCRASQNVGTNYLAWYQQKPGQAPRLLIYGASSRATGVPDRFSGSGSGTDFTLTISRLAPEDFAVYYCQQYSSSPLTFGGGTKLEIK | 3.4

Name the reported Neutralizing activity (%) at 100 µg/ml value associated with the binder Group 36 representative clone F082-243, Fab-PP-type antibody (Fab, V domains shown) VH: QVQLQQSGAEVKKPGSSVKVSCKASGGIFRKNAISWVRQAPGQGLEWMGGIIAIFGTANYAQKFQGRVTITADDSTNTVYMELTSLRYEDTAVYYCARGPNYYENYFDFWGQGTLVTVSS VL: EIVLTQSPSSLSASLRDTVTITCRTSQAITNYLAWYQQRPGKAPKLLIYAASVLQSGVPSRFSGSGSGTDFTLTISSLQPEDFATYYCQKYDSAPYTFGQGTKLEIK
7.5

Measured values drawn from patent US20160200799A1 for this set.
